melting point values by entry

These solved cases illustrate the format of a correct answer.
compound | melting point
COc1ccc(C=C2SC(=S)N(CN3CCCCC3)C2=O)cc1 | 222 to 223 °C
CC(C)(C)OC(=O)N1CCC(C(N)=O)CC1 | 163 to 164 °C
Nc1n[nH]c(N)c1Cc1ccccc1Cl | 120 to 121 °C
CC(=O)N1CCc2cccc(N)c21 | 157 to 160 °C
O=C(O)C(Br)c1ccccc1Cl (stereo unspecified) | 107 °C

Then there is this compound:
Data request: melting point lookup needed for C=CC1CNCCC1CCC(=O)c1ccnc2ccc(OC)cc12 (stereo unspecified) , thanks.
Data returned: 60 °C

###

melting point values by entry
The figure you give is taken to be in °C; do not add the unit.

molecule | unit_string | data_value
COc1ccc(C(Cl)=C(c2ccc(OC)cc2)c2ccc(OC)cc2)cc1 | °C | 115

Then there is this molecule:
Data request: melting point lookup needed for CC(CN1C(=O)c2cccnc2Nc2ccccc21)N(C)C (stereo not given) , thanks.
Data returned: 122

###

experimental_endpoint: melting point (°C)
The figure you give is taken to be in °C; do not add the unit.

compound | unit_string | melting point
CC(C)(C#N)C(C)(C)C#N | °C | 170

Data request: melting point lookup needed for `O=[N+]([O-])c1cc([N+](=O)[O-])c(OCCO)cc1OCCO` , thanks.
Data returned: 136

Data request: melting point lookup needed for `O=C(Oc1ccccc1C(=O)O)c1ccccc1O` , thanks.
Data returned: 147

Data request: melting point lookup needed for `c1ccc(COc2cccc3[nH]ccc23)cc1` , thanks.
Data returned: 60

Data request: melting point lookup needed for `O=C(COc1ccc(Cl)cc1)Nc1nc2ccccc2s1` , thanks.
Data returned: 139

Data request: melting point lookup needed for `Oc1ccc2cc(Br)ccc2c1` , thanks.
Data returned: 128

Data request: melting point lookup needed for `Clc1cccnc1-c1ccnc(Cl)c1Cl` , thanks.
Data returned: 169

Data request: melting point lookup needed for `COC(=O)c1c(OC)ccc(OC)c1C(=O)OC` , thanks.
Data returned: 101

Data request: melting point lookup needed for `CCC(Br)(CC)C(N)=O` , thanks.
Data returned: 67

Data request: melting point lookup needed for `Cc1cc(C(C)(C)C)cc(C)c1CC1=NCCN1` , thanks.
Data returned: 131

Data request: melting point lookup needed for `Br/C=C/Br` , thanks.
Data returned: -6.5

Data request: melting point lookup needed for `O=C(C(=S)Nc1ccc(Br)cc1)c1ccccc1` , thanks.
Data returned: 118

Data request: melting point lookup needed for `OCCCCCCCCCCCBr` , thanks.
Data returned: 46

###

melting point values by entry
The figure you give is taken to be in °C; do not add the unit.

These solved cases illustrate the format of a correct answer.
compound | melting point, °C
CC(CCC(/C=N/NC(N)=O)C(C)C)C(=O)O (centres undefined) | 152
CN(C)C(=S)Oc1ccc2ccccc2c1 | 90
Clc1cc(I)ccn1 | 43
Cc1ccc([N+](=O)[O-])c(N)c1 | 108

Data request: melting point lookup needed for `COC(=O)c1ccc([N+](=O)[O-])c(C)c1` , thanks.
Data returned: 81

Data request: melting point lookup needed for `CC(C)CCC(C)C` , thanks.
Data returned: -91

Data request: melting point lookup needed for Cc1c(F)c(F)c(COC(=O)C2C(C=C(Cl)C(F)(F)F)C2(C)C)c(F)c1F (centres undefined) , thanks.
Data returned: 44.6

Data request: melting point lookup needed for CCCCC(/C=C1\C(=O)C2(C)CCC1C2(C)C)(/C=C1\C(=O)C2(C)CCC1C2(C)C)C(=O)OCC (centres undefined) , thanks.
Data returned: 175

Data request: melting point lookup needed for `Cc1ccc(OC(=O)C(C)(c2ccccc2)c2ccccc2)cc1` , thanks.
Data returned: 111

Data request: melting point lookup needed for `COc1ccc(-c2csc(/C(C#N)=N\Nc3ccc(C)cc3)n2)cc1` , thanks.
Data returned: 151

Data request: melting point lookup needed for `Fc1ccc(C(c2ccc(F)cc2)C(Cl)(Cl)Cl)cc1` , thanks.
Data returned: 44.5

Data request: melting point lookup needed for `O=C(OCCOc1ccc(Cl)cc1Cl)c1ccccc1` , thanks.
Data returned: 66

Data request: melting point lookup needed for COC(=O)C(C)N(C(=O)Cc1ccccc1)c1c(C)cccc1C (centres undefined) , thanks.
Data returned: 79

Data request: melting point lookup needed for `CCCCC(=O)OCN1C(=O)NC(c2ccccc2)(c2ccccc2)C1=O` , thanks.
Data returned: 91

Data request: melting point lookup needed for CC(C)C1=C(O)C(=O)C2=C(CC(O)C3C(C)(C)CCCC23C)C1=O (centres undefined) , thanks.
Data returned: 188
